Experiment: Drug metabolism in human liver S9 fraction assessed as non-oxidative metabolism after 4 hrs by UPLC-UV-PAD method
Format: ADME, subcellular
Conditions: read-out: Drug metabolism
TEST READOUT: metabolised at 4 h (%)

compound="CC(CCN1CCCCC1)c1ccc(-c2ccccc2)cc1.Cl (racemic)" measured_value=30

====

Experiment: Solubility of the compound in water by UV spectrophotometric analysis
Format: physicochemical
TEST READOUT: solubility (mg/mL)

compound="CC(CCN1CCCCC1)c1ccc(-c2ccccc2)cc1.Cl (racemic)" quantity_unit=mg/mL measured_value=33

====

Assay: Drug metabolism in rat plasma after 4 hrs by UPLC-UV/PAD method
Type: ADME, cell-free
Settings: read-out: Drug metabolism
TEST READOUT: metabolised at 4 h (%)

molecule="CC(CCN1CCCCC1)c1ccc(-c2ccccc2)cc1.Cl (racemic)" test_readout="metabolised at 4 h" quantity_unit=% measured_value=6

Entry source: ChEMBL document CHEMBL2375272
